# credit: patent US11672785B2

# Tested on: MCF-7 breast cancer cells
# test.name: Inhibition of E2-stimulated proliferation of MCF-7 cells (Cyquant)
# Format: cell-based
# experimental.conditions: Homo sapiens, MCF7; Table 1; read-out: MCF-7 Proliferation IC50

# structure, target.or.test.system, unit.of.measurement, IC50
rows = [
    ("CCCN1CC(Oc2ccc([C@@H]3c4[nH]c5ccccc5c4C[C@@H](C)N3CC(C)(C)F)cc2F)C1", "MCF-7 breast cancer cells", "nM", 7.58),
    ("CCCN1CC(Oc2ccc([C@@H]3c4[nH]c5ccccc5c4C[C@@H](C)N3CC(C)(C)F)cc2)C1", "MCF-7 breast cancer cells", "nM", 4.53),
    ("C[C@@H]1Cc2c([nH]c3ccccc23)[C@@H](c2ccc(OCCN3CC(CF)C3)cc2)N1CC(C)(C)F", "MCF-7 breast cancer cells", "nM", 14.5),
    ("C[C@@H]1Cc2c([nH]c3ccccc23)[C@@H](c2c(F)cc(OCCN3CC(CF)C3)cc2F)N1CC(C)(C)F", "MCF-7 breast cancer cells", "nM", 8.4),
]
